Provenance of the data: patent US20220339150A1

Assay: Metabolic stability in human liver microsomes
Format: in vitro ADME
Settings: both sexes, human, microsomes, pH 7.4, Table 5; average of determinations; read-out: Half-life in human liver microsomes (avg.) (converted)
# half-life at 15 µg/mL annotations
Return type: number; implicit unit h.

>>> print(df.to_string())
                                   compound               quantity  u  reported
0  CCCCCc1cc(O)c(C/C=C(\C)CCC=C(C)C)c(OC(=O)N2CCNCC2)c1  half-life at 15 µg/mL  h      1.54
1  CCCCCc1cc(O)c(C/C=C(\C)CCC=C(C)C)c(OC(=O)N2CCN(C)CC2)c1  half-life at 15 µg/mL  h      1.68
2  CCCCCc1cc(OC(=O)N2CCN(C)CC2)c2c(c1)OC(C)(CCC=C(C)C)C=C2 (centres unmarked)  half-life at 15 µg/mL  h      3.65

Value of half-life at 15 µg/mL reported for the compound CCCCCc1cc(OC(=O)N2CCN(C)CC2)c(C/C=C(\C)CCC=C(C)C)c(OC(=O)N2CCN(C)CC2)c1 is 1.9

Value of half-life at 15 µg/mL reported for the compound CCCCCc1cc(OC(=O)N2CCNCC2)c2c(c1)OC(C)(CCC=C(C)C)C=C2 (centres unmarked) is 14.9

###

Assay: Metabolic stability in human liver microsomes
Type: in vitro ADME
Conditions: both sexes, human, microsomes, pH 7.4, Table 5; 37° C., NADPH; read-out: Half-life in human liver microsomes (single determinations) (converted)
# half-life at 15 µg/mL annotations
Return type: number; implicit unit h.

>>> df
                                   compound  u  reported
0  CCCCCc1cc(O)c(C/C=C(\C)CCC=C(C)C)c(OC(=O)N2CCNCC2)c1 [CBGp5]  h      1.29
1  CCCCCc1cc(O)c(C/C=C(\C)CCC=C(C)C)c(OC(=O)N2CCN(C)CC2)c1 [CBGp2]  h      1.62

Now consider a different compound.
Value of half-life at 15 µg/mL reported for the compound CCCCCc1cc(OC(=O)N2CCN(C)CC2)c2c(c1)OC(C)(CCC=C(C)C)C=C2 (stereo not drawn) [CBCp1] is 4.18

###

Tested on: reconstructed human oral buccal epithelium cells (SkinEthic HOE, TR146 cells)
Assay: In vitro buccal permeability (SkinEthic human oral epithelium)
Assay type: in vitro ADME
Conditions: Table 2; remark in flux cell
QUANTITY: Species making up the buccal flux (parent vs intact prodrug)

Sample records with Species making up the buccal flux (parent vs intact prodrug):
>>> print(df.to_string())
                              line_notation             reported
0  C=C(C)[C@@H]1CCC(C)=C[C@H]1c1c(OC(=O)N2CCN(C)CC2)cc(CCCCC)cc1OC(=O)N1CCN(C)CC1  only intact prodrug
1  C=C(C)[C@@H]1CCC(C)=C[C@H]1c1c(OC(=O)N2CCCCC2)cc(CCCCC)cc1OC(=O)N1CCCCC1  only intact prodrug
2  C=C(C)[C@@H]1CCC(C)=C[C@H]1c1c(O)cc(CCCCC)cc1OC(=O)CN1CCN(C)CC1        1/3 CBD & 2/3
3  C=C(C)[C@@H]1CCC(C)=C[C@H]1c1c(O)cc(CCCCC)cc1OC(=O)N1CCCCC1  only intact prodrug

Now consider a different molecule.
Here C=C(C)[C@@H]1CCC(C)=C[C@H]1c1c(O)cc(CCCCC)cc1OC(=O)N1CCNCC1 was tested on reconstructed human oral buccal epithelium cells (SkinEthic HOE, TR146 cells), and its Species making up the buccal flux (parent vs intact prodrug) came to only intact prodrug

###

Test system: reconstructed human oral buccal epithelium cells (SkinEthic HOE, TR146 cells)
Assay: In vitro buccal permeability (SkinEthic human oral epithelium)
Format: in vitro ADME
Details: Table 4; suspension ca. 2 mg/ml in 5% EtOH/phosphate buffer pH 6.8, 37° C.; receiver 15% HP-β-cyclodextrin
# Flux (buccal) annotations
Return type: number; implicit unit nmol/cm^2/h.

Sample records with Flux (buccal):
In [3]: df
Out[3]:
                                   molecule            u  reported
0  CCCCCc1cc(O)c(C/C=C(\C)CCC=C(C)C)c(OC(=O)C2CCNC2)c1 (stereo not drawn)  nmol/cm^2/h    111.79
1  CCCCCc1cc(O)c2c(c1)OC(C)(C)[C@@H]1CCC(C)=C[C@@H]21 [THC, Δ9-Tetrahydrocannabinol, reference compound]  nmol/cm^2/h     19.65

Now consider a different molecule.
Here CCCCCc1cc(O)c2c(c1)OC(C)(CCC=C(C)C)C=C2 (stereo not drawn) [CBC, Cannabichromene, reference compound] was tested on reconstructed human oral buccal epithelium cells (SkinEthic HOE, TR146 cells), and its Flux (buccal) came to 27.87

###

# half-life annotations
Assay: Metabolic stability in human liver microsomes
Type: in vitro ADME
Settings: both sexes, human, microsomes, pH 7.4, Table 5; 37° C., NADPH; read-out: Half-life in human liver microsomes (single determinations) (converted)
Return type: number; implicit unit min.

Sample records with half-life:
>>> df
                                   molecule  reported
0  CCCCCc1cc(O)c(C/C=C(\C)CCC=C(C)C)c(OC(=O)C2CCNC2)c1 (centres unmarked)      38.4
1  CCCCCc1cc(OC(=O)C2CCNC2)c2c(c1)OC(C)(C)[C@@H]1CCC(C)=C[C@@H]21 (some centres unmarked)       125

Value of half-life reported for the molecule CCCCCc1cc(O)c2c(c1)OC(C)(C)[C@@H]1CCC(C)=C[C@@H]21 [THC, Δ9-Tetrahydrocannabinol, reference compound] is 10.2

Value of half-life reported for the molecule CCCCCc1cc(O)c2c(c1)OC(C)(CCC=C(C)C)C=C2 (centres unmarked) [CBC, Cannabichromene, reference compound] is 116

Value of half-life reported for the molecule CCCCCc1cc(OC(=O)N2CCN(C)CC2)c2c(c1)OC(C)(C)[C@@H]1CCC(C)=C[C@@H]21 is 158

###

Experiment: Metabolic stability in human liver microsomes
Assay type: in vitro ADME
Conditions: both sexes, human, microsomes, pH 7.4, Table 3; 37° C., NADPH; read-out: Half-life in human liver microsomes (single determinations) (converted)
# half-life at 15 µg/mL annotations
Return type: number; implicit unit min.

Sample records with half-life at 15 µg/mL:
>>> df
                                   compound               quantity  reported
0  C=C(C)[C@@H]1CCC(C)=C[C@H]1c1c(O)cc(CCCCC)cc1OC(=O)NCCN(C)C [CBDp27]  half-life at 15 µg/mL       188
1  C=C(C)[C@@H]1CCC(C)=C[C@H]1c1c(O)cc(CCCCC)cc1O [CBD, Cannabidiol]  half-life at 15 µg/mL        36

Value of half-life at 15 µg/mL reported for the compound C=C(C)[C@@H]1CCC(C)=C[C@H]1c1c(OC(=O)N2CCN(C)CC2)cc(CCCCC)cc1OC(=O)N1CCN(C)CC1 [CBDp14] is 51.6

###

Assay: Stability in 80% human plasma (serum)
Assay type: in vitro ADME
Details: Table 5; 80% human serum (pH 7.4) at 37° C.
QUANTITY: Half-life in serum

Sample records with Half-life in serum:
>>> print(df.to_string())
                                   molecule            quantity          reported
0  CCCCCc1cc(OC(=O)N2CCNCC2)c2c(c1)OC(C)(C)[C@@H]1CCC(C)=C[C@@H]21 [THCp3]  Half-life in serum    No degradation
1  CCCCCc1cc(OC(=O)N2CCN(C)CC2)c2c(c1)OC(C)(CCC=C(C)C)C=C2 (stereo not drawn) [CBCp1]  Half-life in serum  stable for 6 hrs
2  CCCCCc1cc(O)c(C/C=C(\C)CCC=C(C)C)c(OC(=O)C2CCNC2)c1 (stereo not drawn) [CBGp1]  Half-life in serum          44.4 min
3  CCCCCc1cc(OC(=O)N2CCN(C)CC2)c2c(c1)OC(C)(C)[C@@H]1CCC(C)=C[C@@H]21 [THCp1]  Half-life in serum    No degradation

Value of Half-life in serum reported for the molecule CCCCCc1cc(OC(=O)C2CCNC2)c2c(c1)OC(C)(C)[C@@H]1CCC(C)=C[C@@H]21 (stereo partly drawn) [THCp2] is 25.8 min

Value of Half-life in serum reported for the molecule CCCCCc1cc(OC(=O)N2CCNCC2)c2c(c1)OC(C)(CCC=C(C)C)C=C2 (stereo not drawn) [CBCp3] is stable for 6 hrs

Value of Half-life in serum reported for the molecule CCCCCc1cc(OC(=O)N2CCN(C)CC2)c(C/C=C(\C)CCC=C(C)C)c(OC(=O)N2CCN(C)CC2)c1 [CBGp3] is No degradation

Value of Half-life in serum reported for the molecule CCCCCc1cc(O)c(C/C=C(\C)CCC=C(C)C)c(OC(=O)N2CCNCC2)c1 [CBGp5] is No degradation

Value of Half-life in serum reported for the molecule CCCCCc1cc(O)c(C/C=C(\C)CCC=C(C)C)c(OC(=O)N2CCN(C)CC2)c1 [CBGp2] is No degradation
